READOUT KIND: melting point

[Q] Give the value of melting point reported for the following: O=C(N/N=C1\CCc2c(Cl)cc(Cl)c(O)c21)c1ccccc1
[A] 243 to 245 °C

[Q] Give the measured melting point for O=C(N/N=C1\CCc2c(Cl)cc(Cl)c(O)c21)c1ccccc1O
[A] 285 to 290 °C

[Q] Please supply the value of reported melting point for the item O=C(N/N=C1\CCc2c(Cl)cc(Cl)c(O)c21)c1ccc(Cl)cc1
[A] 252 to 255 °C

[Q] Using the record for Cc1ccc(C(=O)N/N=C2\CCc3c(Cl)cc(Cl)c(O)c32)cc1 , state its measured melting point.
[A] 218 to 222 °C

[Q] State, in one line, measured melting point of Cc1ccc(C(=O)N/N=C2\CCc3c(Cl)cc(Cl)c(O)c32)c(O)c1
[A] 284 to 288 °C

[Q] Output melting point of O=C(N/N=C1\CCc2c(Cl)cc(Cl)c(O)c21)c1ccc(C(F)(F)F)cc1
[A] 245 to 248 °C

[Q] Please indicate melting point recorded for O=C(N/N=C1\CCc2cccc(O)c21)c1ccccc1
[A] 192 to 194 °C

[Q] Give me measured melting point, please, for this compound: COc1ccc(C(=O)N/N=C2\CCc3c(Cl)cc(Cl)c(O)c32)cc1
[A] 230 to 233 °C
